EXPERIMENT_SUMMARY: Ratio of IC50 of [3H]cocaine to that of dopamine
Format: functional
Use Fulfilled when the recorded Ratio is no lower than 2; use Not fulfilled when it is lower.

> print(dat)
                      structure.string    label.value
1              NC1(c2cc3ccccc3s2)CCCC1      Fulfilled
2            NC1(c2cc3ccccc3s2)CCCCCC1      Fulfilled
3  c1ccc2sc(C3(N4CCCCCC4)CCCCCC3)cc2c1  Not fulfilled
4     c1ccc2sc(C3(N4CCCCC4)CCCC3)cc2c1      Fulfilled
5      c1ccc2sc(C3(N4CCCC4)CCCC3)cc2c1  Not fulfilled
6    c1ccc2sc(C3(N4CCCCC4)CCCCC3)cc2c1      Fulfilled
7     c1ccc2sc(C3(N4CCCC4)CCCCC3)cc2c1  Not fulfilled
8   c1ccc2sc(C3(N4CCCCCC4)CCCCC3)cc2c1  Not fulfilled

Tell me whether Ratio is at least 2 here: NC1(c2cc3ccccc3s2)CCCCC1
Fulfilled

Can c1ccc2sc(C3(N4CCCC4)CCCCCC3)cc2c1 be said to have Ratio at or above 2?
Not fulfilled

Say whether c1ccc2sc(C3(N4CCCCCC4)CCCC3)cc2c1 shows Ratio of 2 or more.
Not fulfilled

Values were extracted from ChEMBL document CHEMBL1126651.
